Biological target: dopamine-D2 receptors (Rattus norvegicus, UniProt P61169)
Construct: labels dopamine receptors in rat pituitary and brain; from tissue; host or cells: rat brain / pituitary membranes (from the title of the cited method)
Sequence (P61169 whole entry): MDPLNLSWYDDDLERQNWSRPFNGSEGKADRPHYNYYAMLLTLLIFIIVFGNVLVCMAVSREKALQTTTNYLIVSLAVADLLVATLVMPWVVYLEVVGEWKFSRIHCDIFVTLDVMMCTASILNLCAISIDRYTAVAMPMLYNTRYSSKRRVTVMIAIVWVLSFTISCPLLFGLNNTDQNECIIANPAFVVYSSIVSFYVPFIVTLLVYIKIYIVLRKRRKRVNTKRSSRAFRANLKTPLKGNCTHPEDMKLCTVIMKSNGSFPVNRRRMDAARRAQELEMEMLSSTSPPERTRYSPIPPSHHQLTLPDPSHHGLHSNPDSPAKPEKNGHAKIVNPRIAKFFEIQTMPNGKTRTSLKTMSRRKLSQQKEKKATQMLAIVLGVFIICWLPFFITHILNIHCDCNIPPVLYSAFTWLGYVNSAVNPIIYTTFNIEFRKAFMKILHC
Test: In vitro affinity for dopamine-D2 receptors ([3H]-spiroperidol receptor binding assay, Creese et al.)
Settings: receptor binding; read-out: Dopamine-D2 binding pKi (converted)
Outcome measure: Ki (nM)
Lab book: enter the figure in nM, no units written.

INSERT INTO measurements (structure, measurement_units, value) VALUES
  ('Cn1c(=O)oc2c(N3CCN(CCCCc4c[nH]c5ccc(F)cc45)CC3)cccc21', 'nM', 25.1),
  ('Cn1c(=O)oc2c(N3CCN(CCCc4c[nH]c5ccc(F)cc45)CC3)cc(F)cc21', 'nM', 79.4),
  ('C[C@@H]1CN(c2cccc3[nH]c(=O)oc23)C[C@H](C)N1CCCc1c[nH]c2ccc(F)cc12', 'nM', 20);

Would you mind telling me what Ki value was observed for Fc1ccc2[nH]cc(CCCN3CCN(c4cccc5[nH]c(=S)oc45)CC3)c2c1 ?
15.8

* * *

Target: serotonin reuptake sites (Rattus norvegicus, UniProt P31652)
Construct: from tissue; host or cells: rat cortical membranes (from the title of the cited method)
Sequence (P31652 whole entry): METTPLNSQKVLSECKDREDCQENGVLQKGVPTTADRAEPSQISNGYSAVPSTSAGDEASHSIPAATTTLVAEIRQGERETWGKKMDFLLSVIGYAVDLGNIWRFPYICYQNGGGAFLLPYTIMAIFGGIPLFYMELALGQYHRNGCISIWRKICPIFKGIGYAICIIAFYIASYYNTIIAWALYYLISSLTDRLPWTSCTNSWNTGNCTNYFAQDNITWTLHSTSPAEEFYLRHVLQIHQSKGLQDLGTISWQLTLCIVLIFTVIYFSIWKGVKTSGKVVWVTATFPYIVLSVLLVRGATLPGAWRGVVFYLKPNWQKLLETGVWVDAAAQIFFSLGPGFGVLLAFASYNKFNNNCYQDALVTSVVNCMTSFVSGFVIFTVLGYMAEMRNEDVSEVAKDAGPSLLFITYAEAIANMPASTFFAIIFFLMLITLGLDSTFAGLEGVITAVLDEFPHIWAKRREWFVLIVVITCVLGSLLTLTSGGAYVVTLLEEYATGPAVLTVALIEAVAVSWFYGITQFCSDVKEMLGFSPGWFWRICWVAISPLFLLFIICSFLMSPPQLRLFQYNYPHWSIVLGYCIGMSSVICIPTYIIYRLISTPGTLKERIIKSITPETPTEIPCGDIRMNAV
Test: In vitro affinity for serotonin reuptake sites ([3H]-paroxetine binding assay, Habert et al.)
Details: receptor binding; read-out: 5-HT reuptake binding pKi (converted)
Known Ki of a selection of compounds
Record the value in nM, omitting the unit from your answer.

INSERT INTO measurements (compound, target_of_assay, value) VALUES
  ('CC(CCc1c[nH]c2ccc(F)cc12)N1CCN(c2cccc3c2oc(=O)n3C)CC1 (centres unmarked)', 'serotonin reuptake sites (Rattus norvegicus, UniProt P31652)', 1);

Param item = Cn1c(=O)oc2c(N3CCN(CCCc4c[nH]c5ccc(C#N)cc45)CC3)cccc21 ; retrieve measured Ki.
3.98

Here is the next compound: C[C@@H]1CN(c2cccc3[nH]c(=O)oc23)C[C@H](C)N1CCCc1c[nH]c2ccc(F)cc12
5.01

Please do the same for CC(CCN1CCN(c2cccc3c2oc(=O)n3C)CC1)c1c[nH]c2ccc(F)cc12 (centres unmarked) as well.
0.794

Input Fc1ccc2[nH]cc(CCCN3CCN(c4cccc5[nH]c(=S)oc45)CC3)c2c1
5.01

* * *

Recorded melting point values for a group of compounds are listed next.
Counter-ions that a name gives are not always drawn.

INSERT INTO results (compound, value) VALUES
  ('Cn1cc(CCCN2CCN(c3cccc4c3oc(=O)n4C)CC2)c2cc(F)ccc21 (as salt: HCl)', '> 225 °C (dec.)'),
  ('Cn1c(=O)oc2c(N3CCN(CCCCc4c[nH]c5ccc(C#N)cc45)CC3)cccc21 (as salt: HCl)', '213 to 215 °C'),
  ('Cn1c(=O)oc2c(N3CCN(CCCc4c[nH]c5ccc(C#N)cc45)CC3)cccc21', '151 to 152 °C');

Shifting focus to the compound that follows.
// query melting point value for entry Cn1c(=O)oc2c(N3CCN(CCCc4c[nH]c5ccc(F)cc45)CC3)cccc21
135 to 137 °C

* * *

Molecular target: dopamine-D2 receptors (Rattus norvegicus, UniProt P61169)
Construct: labels dopamine receptors in rat pituitary and brain; from tissue; host or cells: rat brain / pituitary membranes (from the title of the cited method)
Assay: In vitro affinity for dopamine-D2 receptors ([3H]-spiroperidol receptor binding assay, Creese et al.)
Outcome measure: pKi
# log scale: pKi equals minus log10 of the concentration in mol/L

Record lookup: for dopamine-D2 receptors (Rattus norvegicus, UniProt P61169), what pKi belongs to Cn1c(=O)oc2c(N3CCN(CCc4c[nH]c5ccc(F)cc45)CC3)cccc21 ?
8.40
